The reported measurements were obtained from patent US9156872B2.

test system: HCV replicon cells; test: Cell-based HCV replicon assay (replicon RNA by Taqman real time PCR); conditions: read-out: 1b EC50
readout_kind: EC50
Record the result as a number with its unit.

compound	endpoint_result
COC(=O)[C@H](C)NP(=O)(OC[C@H]1O[C@@H](n2cnc3c(OC)nc(N)nc32)[C@](C)(N=[N+]=[N-])C1O)Oc1cccc2ccccc12 (single isomer, unassigned) [Compound 255]	1.2 µM
CCOc1nc(N)nc2c1ncn2[C@@H]1O[C@H](COP(=O)(N[C@@H](C)C(=O)OCC(C)(C)C)Oc2ccccc2)[C@@H](O)[C@@]1(C)N=[N+]=[N-] (single isomer, unassigned) [Compound 160]	6.8 µM

# input for lookup
Qu. What EC50 value was documented for this compound, CCOC(=O)[C@H](C)NP(=O)(OC[C@H]1O[C@@H](n2ccc(N)nc2=O)[C@](C)(N=[N+]=[N-])[C@@H]1O)Oc1ccc(Cl)cc1 (single isomer, unassigned) [Compound 189] ?
Ans. 22 µM

---

tested on: HCV replicon cells; assay: Cell-based HCV replicon assay (replicon RNA by Taqman real time PCR); conditions: read-out: 1b EC50
readout_kind: pEC50
In plain terms, pEC50 is the concentration in mol/L turned into minus its base-10 logarithm.

compound	endpoint_result
COC(=O)[C@H](C)NP(=O)(OC[C@H]1O[C@@H](n2ccc(=O)[nH]c2=O)[C@](C)(N=[N+]=[N-])[C@@H]1O)Oc1cccc2ccccc12 (single isomer, unassigned) [Compound 217]	5.68

Qu. What pEC50 value was documented for this compound, COC(=O)c1ccccc1OP(=O)(N[C@@H](C)C(=O)OC)OC[C@H]1O[C@@H](n2ccc(=O)[nH]c2=O)[C@](C)(N=[N+]=[N-])[C@@H]1O (single isomer, unassigned) [Compound 216] ?
Ans. 5.89

Qu. What pEC50 value was documented for this compound, CCOc1nc(N)nc2c1ncn2[C@@H]1O[C@H](COP(=O)(N[C@@H](C)C(=O)OC)Oc2ccccc2Cl)[C@@H](O)[C@@]1(C)N=[N+]=[N-] (single isomer, unassigned) [Compound 310] ?
Ans. 6.03

Qu. What pEC50 value was documented for this compound, CC(C)COC(=O)[C@H](C)NP(=O)(OC[C@H]1O[C@@H](n2ccc(=O)[nH]c2=O)[C@](C)(N=[N+]=[N-])[C@@H]1O)Oc1ccccc1 (single isomer, unassigned) [Compound 211] ?
Ans. 6.10

---

test system: HCV replicon cells; experiment: Cell-based HCV replicon assay (replicon RNA by Taqman real time PCR); details: read-out: 1b EC50
Reported EC50 by item:
State the answer as a number, implicitly in nM.

molecule	EC50 / nM
CCOc1nc(N)nc2c1ncn2[C@@H]1O[C@H](COP(=O)(N[C@@H](C)C(=O)OC2CCC2)Oc2ccccc2)[C@@H](O)[C@@]1(C)N=[N+]=[N-] (single isomer, unassigned) [Compound 363]	200
COC(=O)[C@H](C)NP(=O)(OC[C@H]1O[C@@H](n2ccc(N)nc2=O)[C@](C)(N=[N+]=[N-])[C@@H]1O)Oc1ccc(Cl)cc1 (single isomer, unassigned) [Compound 186]	2000
C[C@H](NP(=O)(OC[C@H]1O[C@@H](n2ccc(N)nc2=O)[C@](C)(N=[N+]=[N-])[C@@H]1O)Oc1ccccc1)C(=O)OCc1ccccc1 (single isomer, unassigned) [Compound 192]	19000
C[C@H](NP(=O)(OC[C@H]1O[C@@H](n2ccc(=O)[nH]c2=O)[C@](C)(N=[N+]=[N-])[C@@H]1O)Oc1ccccc1)C(=O)OCc1ccccc1 (single isomer, unassigned) [Compound 301]	2700
CCOC(=O)[C@H](C)NP(=O)(OC[C@H]1O[C@@H](n2cnc3c(OCC)nc(N)nc32)[C@](C)(N=[N+]=[N-])[C@@H]1O)Oc1ccccc1 (stereo partly drawn) [Compound 558]	1000
CCOC(=O)[C@H](C)NP(=O)(OC[C@H]1O[C@@H](n2ccc(N)nc2=O)[C@](C)(N=[N+]=[N-])[C@@H]1O)Oc1ccccc1Cl (stereo partly drawn) [Compound 184]	5700
COC(=O)[C@H](C)NP(=O)(OC[C@H]1O[C@@H](n2cnc3c(OC)nc(N)nc32)[C@](C)(N=[N+]=[N-])[C@@H]1O)Oc1ccc(F)cc1 (single isomer, unassigned) [Compound 266]	2400
COC(=O)[C@H](C)NP(=O)(OC[C@H]1O[C@@H](n2ccc(N)nc2=O)[C@](C)(N=[N+]=[N-])[C@@H]1O)Oc1ccc(F)cc1 (single isomer, unassigned) [Compound 187]	22000

# input for lookup
Qu. What EC50 value was documented for this molecule, CCOc1nc(N)nc2c1ncn2[C@@H]1O[C@H](COP(=O)(N[C@@H](C)C(=O)OC2CCCCC2)Oc2ccc(Cl)cc2)[C@@H](O)[C@@]1(C)N=[N+]=[N-] (single isomer, unassigned) [Compound 314] ?
Ans. 1300

---

Reported EC50 by item:
system: HCV replicon cells; test: Cell-based HCV replicon assay (replicon RNA by Taqman real time PCR); conditions: read-out: 1b EC50
State the answer as a number, implicitly in µM.

Below, each entry is followed by its recorded EC50 result.
compound	result_units	EC50
COC(=O)[C@H](C)NP(=O)(OC[C@H]1O[C@@H](n2ccc(=O)[nH]c2=O)[C@](C)(N=[N+]=[N-])[C@@H]1O)Oc1ccccc1 (single isomer, unassigned)	µM	6.2
COc1nc(N)nc2c1ncn2[C@@H]1O[C@H](COP(=O)(N[C@@H](C)C(=O)OCc2ccccc2)Oc2ccccc2)[C@@H](O)[C@@]1(C)N=[N+]=[N-] (single isomer, unassigned) [Compound 278]	µM	7.3
CC(C)OC(=O)[C@H](C)NP(=O)(OC[C@H]1O[C@@H](n2ccc(N)nc2=O)[C@](C)(N=[N+]=[N-])[C@@H]1O)Oc1ccccc1Cl (single isomer, unassigned) [Compound 332]	µM	20
COc1nc(N)nc2c1ncn2[C@@H]1O[C@H](COP(=O)(N[C@@H](C)C(=O)OCC(C)(C)C)Oc2ccccc2)C(O)[C@@]1(C)N=[N+]=[N-] (single isomer, unassigned) [Compound 291]	µM	2.4
CCOc1nc(N)nc2c1ncn2[C@@H]1O[C@H](COP(=O)(N[C@@H](C)C(=O)OCc2ccccc2)Oc2ccccc2)[C@@H](O)[C@@]1(C)N=[N+]=[N-] (single isomer, unassigned) [Compound 350]	µM	1

Qu. What EC50 value was documented for this compound, CCOC(=O)[C@H](C)NP(=O)(OC[C@H]1O[C@@H](n2ccc(=O)[nH]c2=O)[C@](C)(N=[N+]=[N-])[C@@H]1O)Oc1ccccc1 (single isomer, unassigned) [Compound 151] ?
Ans. 5.1

Qu. What EC50 value was documented for this compound, CCCCOC(=O)[C@H](C)NP(=O)(OC[C@H]1O[C@@H](n2ccc(=O)[nH]c2=O)[C@](C)(N=[N+]=[N-])[C@@H]1O)Oc1ccccc1 (single isomer, unassigned) [Compound 170] ?
Ans. 1.5

Qu. What EC50 value was documented for this compound, C[C@H](NP(=O)(OC[C@H]1O[C@@H](n2ccc(=O)[nH]c2=O)[C@](C)(N=[N+]=[N-])[C@@H]1O)Oc1ccc2c(c1)OCO2)C(=O)OCc1ccccc1 (stereo partly shown) ?
Ans. 1.3

---

test system: HCV replicon cells; test: Cell-based HCV replicon assay (replicon RNA by Taqman real time PCR); settings: read-out: 1b EC50
readout_kind: EC50 (µM)
State the answer as a number, implicitly in µM.

compound	EC50 / µM
COC(=O)[C@H](C)NP(=O)(OC[C@H]1O[C@@H](n2ccc(=O)[nH]c2=O)[C@](C)(N=[N+]=[N-])[C@@H]1O)Oc1cccc2ccccc12 (single isomer, unassigned) [Compound 218]	4.6

Qu. What EC50 value was documented for this compound, COC(=O)[C@H](C)NP(=O)(OC[C@H]1O[C@@H](n2ccc(N)nc2=O)[C@](C)(N=[N+]=[N-])[C@@H]1O)Oc1ccc(F)cc1 (single isomer, unassigned) [Compound 188] ?
Ans. 5.6

Qu. What EC50 value was documented for this compound, COC(=O)[C@H](C)NP(=O)(OC[C@H]1O[C@@H](n2ccc(N)nc2=O)[C@](C)(N=[N+]=[N-])[C@@H]1O)Oc1ccc(Cl)c(Cl)c1 (single isomer, unassigned) [Compound 194] ?
Ans. 35

---

tested on: HCV replicon cells; assay: Cell-based HCV replicon assay (replicon RNA by Taqman real time PCR); conditions: read-out: 1b EC50
pEC50: −log10 of the molar value.
Threshold rule: pEC50 greater than or equal to 5 is Condition met; below that, Condition not met.

Previously resolved entries follow.
compound	cat
CCOC(=O)[C@H](C)NP(=O)(OC[C@H]1O[C@@H](n2cnc3c(OCC)nc(N)nc32)[C@](C)(N=[N+]=[N-])[C@@H]1O)Oc1ccc(Cl)cc1 (single isomer, unassigned)	Condition met
COc1nc(N)nc2c1ncn2[C@@H]1O[C@H](COP(=O)(N[C@@H](C)C(=O)OC2CCCCC2)Oc2ccc(Cl)cc2)[C@@H](O)[C@@]1(C)N=[N+]=[N-] (single isomer, unassigned)	Condition met
CCOC(=O)c1ccccc1OP(=O)(N[C@@H](C)C(=O)OC)OC[C@H]1O[C@@H](n2ccc(=O)[nH]c2=O)[C@](C)(N=[N+]=[N-])[C@@H]1O (single isomer, unassigned) [Compound 226]	Condition not met
CCOC(=O)[C@H](C)NP(=O)(OC[C@H]1O[C@@H](n2cnc3c(OC)nc(N)nc32)[C@](C)(N=[N+]=[N-])[C@@H]1O)Oc1ccc(F)cc1 (single isomer, unassigned) [Compound 271]	Condition met
C[C@H](NP(=O)(OC[C@H]1O[C@@H](n2ccc(=O)[nH]c2=O)[C@](C)(N=[N+]=[N-])[C@@H]1O)Oc1ccccc1)C(=O)OCC(C)(C)C (single isomer, unassigned) [Compound 153]	Condition not met

Qu. Confirm if pEC50 reported for the compound C[C@H](NP(=O)(OC[C@H]1O[C@@H](n2ccc(=O)[nH]c2=O)[C@](C)(N=[N+]=[N-])[C@@H]1O)Oc1ccccc1)C(=O)OCc1ccccc1 (single isomer, unassigned) [Compound 300] is 5 or above.
Ans. Condition not met

Qu. Confirm if pEC50 reported for the compound CC(C)OC(=O)[C@H](C)NP(=O)(OC[C@H]1O[C@@H](n2ccc(N)nc2=O)[C@](C)(N=[N+]=[N-])[C@@H]1O)Oc1ccccc1Cl (single isomer, unassigned) [Compound 333] is 5 or above.
Ans. Condition met

Qu. Confirm if pEC50 reported for the compound CCOc1nc(N)nc2c1ncn2[C@@H]1O[C@H](COP(=O)(N[C@@H](C)C(=O)OC)Oc2ccc(F)cc2)[C@@H](O)[C@@]1(C)N=[N+]=[N-] (single isomer, unassigned) is 5 or above.
Ans. Condition met

Qu. Confirm if pEC50 reported for the compound COC(=O)[C@H](C)NP(=O)(OC)OC[C@H]1O[C@@H](n2ccc(N)nc2=O)[C@](C)(N=[N+]=[N-])[C@@H]1O (single isomer, unassigned) is 5 or above.
Ans. Condition not met
